run_description: Determination of solubility in JP-fluid 1 / JP-fluid 2 (HPLC)
Assay type: physicochemical
stated_conditions: simulated gastric fluid, thermodynamic from solid; synthetic gastric juice, pH 1.2, room temperature, 12 hours or more; read-out: Solubility JP-fluid 1
Structures can show the parent of a compound that is named as a salt.
Listing of recorded solubility by entry.
Give the quantity in µg/mL, number only.

Please review the entries below; each comes with its answer.
{"columns": ["compound", "solubility [µg/mL]"],
 "data": [
  ["Cc1cc(CN(Cc2ccco2)Cc2sc(-c3ccc(C(F)(F)F)cc3)nc2C)ccc1OC(C)(C)C(=O)O [SKB-compd, reference compound]", 240],
  ["Cc1oc(-c2cccc(Br)c2)nc1CN(Cc1ccc(OC(C)(C)C(=O)O)cc1)Cc1nccs1 [Example 1-(2), hydrochloride]", 490]
]}

// lookup solubility for `Cc1noc(CN(Cc2cc(C)c(OC(C)(C)C(=O)O)c(C)c2)Cc2nc(-c3ccccc3)oc2C)n1`
650

// lookup solubility for `Cc1oc(-c2cccc(Br)c2)nc1CN(Cc1ccncc1)Cc1ccc(OC(C)(C)C(=O)O)cc1`
930

// lookup solubility for Cc1oc(-c2cccc(Br)c2)nc1CN(Cc1ccc(OC(C)(C)C(=O)O)cc1)Cc1cscn1 [Example 5-(2), hydrochloride]
520

----------
target_system: hPPARα (Homo sapiens, UniProt Q07869)
Sequence (Q07869 239-466 limits assumed): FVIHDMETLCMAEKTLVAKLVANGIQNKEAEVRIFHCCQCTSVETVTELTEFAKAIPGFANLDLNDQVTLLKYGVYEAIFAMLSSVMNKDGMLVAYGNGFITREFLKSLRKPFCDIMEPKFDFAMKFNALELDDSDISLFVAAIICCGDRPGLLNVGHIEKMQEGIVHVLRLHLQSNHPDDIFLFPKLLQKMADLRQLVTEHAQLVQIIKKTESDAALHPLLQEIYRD
run_description: GAL4-hPPAR transactivation assay (PPARα)
stated_conditions: HEK293T cells, pFA-hPPARα/GAL4 + pFR-SEAP reporter, about 48 hours
Counter-ions that a name gives are not always drawn.
Listing of recorded log10 EC50 by entry.
Note the log scale: values are log10 of EC50 expressed in nM.

Please review the entries below; each comes with its answer.
{"columns": ["compound", "target_system", "quantitative_result"],
 "data": [
  ["Cc1cc(CN(Cc2nccs2)Cc2nc(-c3ccccc3)oc2C)cc(C)c1OC(C)(C)C(=O)O", "hPPARα (Homo sapiens, UniProt Q07869)", 0.38],
  ["Cc1noc(CN(Cc2cc(C)c(OC(C)(C)C(=O)O)c(C)c2)Cc2nc(-c3ccccc3)oc2C)n1", "hPPARα (Homo sapiens, UniProt Q07869)", 0.43],
  ["Cc1cc(CN(Cc2ccco2)Cc2sc(-c3ccc(C(F)(F)F)cc3)nc2C)ccc1OC(C)(C)C(=O)O [SKB-compd, reference compound]", "hPPARα (Homo sapiens, UniProt Q07869)", 1.64],
  ["Cc1oc(-c2cccc(Br)c2)nc1CN(Cc1ccc(OC(C)(C)C(=O)O)cc1)Cc1nccs1 [Example 1-(2), hydrochloride]", "hPPARα (Homo sapiens, UniProt Q07869)", 1.11],
  ["Cc1oc(-c2cccc(Br)c2)nc1CN(Cc1ccc(OC(C)(C)C(=O)O)cc1)Cc1cscn1 [Example 5-(2), hydrochloride]", "hPPARα (Homo sapiens, UniProt Q07869)", 0.41]
]}

// lookup log10 EC50 for `Cc1cc(CN(Cc2ncco2)Cc2nc(-c3ccccc3)oc2C)cc(C)c1OC(C)(C)C(=O)O`
0.57

// lookup log10 EC50 for `Cc1oc(-c2cccc(Br)c2)nc1CN(Cc1ccncc1)Cc1ccc(OC(C)(C)C(=O)O)cc1`
0.68

// lookup log10 EC50 for `Cc1nnc(CN(Cc2cc(C)c(OC(C)(C)C(=O)O)c(C)c2)Cc2nc(-c3ccccc3)oc2C)o1`
0.46

----------
run_description: Lipid solubility: octanol / pH 7.4 phosphate buffer partition coefficient
Format: physicochemical
stated_conditions: n-octanol / pH 7.4 isotonic phosphate buffer, read-out: log D (pH 7.4)
Structures can show the parent of a compound that is named as a salt.
Listing of recorded logD by entry.

{"columns": ["compound", "logD"],
 "data": [
  ["Cc1nnc(CN(Cc2cc(C)c(OC(C)(C)C(=O)O)c(C)c2)Cc2nc(-c3ccccc3)oc2C)o1", 1.1]
]}

// lookup logD for `Cc1cc(CN(Cc2nccs2)Cc2nc(-c3ccccc3)oc2C)cc(C)c1OC(C)(C)C(=O)O`
2.6

// lookup logD for `Cc1noc(CN(Cc2cc(C)c(OC(C)(C)C(=O)O)c(C)c2)Cc2nc(-c3ccccc3)oc2C)n1`
1.8

// lookup logD for Cc1oc(-c2cccc(Br)c2)nc1CN(Cc1ccc(OC(C)(C)C(=O)O)cc1)Cc1nccs1 [Example 1-(2), hydrochloride]
2.7

----------
run_description: Determination of solubility in JP-fluid 1 / JP-fluid 2 (HPLC)
Assay type: physicochemical
stated_conditions: fassgf or other biorelevant, thermodynamic from solid; synthetic intestinal juice, pH 6.8, room temperature, 12 hours or more; read-out: Solubility JP-fluid 2
Where a name gives a salt, the structure may show the parent alone.
Listing of recorded solubility by entry.

{"columns": ["molecule", "recorded_endpoint", "result"],
 "data": [
  ["Cc1nnc(CN(Cc2cc(C)c(OC(C)(C)C(=O)O)c(C)c2)Cc2nc(-c3ccccc3)oc2C)o1 [Example 18-(2)]", "solubility", "> 710 µg/mL"],
  ["Cc1cc(CN(Cc2ncco2)Cc2nc(-c3ccccc3)oc2C)cc(C)c1OC(C)(C)C(=O)O [Example 13-(2)]", "solubility", "> 870 µg/mL"],
  ["Cc1noc(CN(Cc2cc(C)c(OC(C)(C)C(=O)O)c(C)c2)Cc2nc(-c3ccccc3)oc2C)n1 [Example 19-(3)]", "solubility", "> 710 µg/mL"]
]}

// lookup solubility for Cc1oc(-c2cccc(Br)c2)nc1CN(Cc1ccc(OC(C)(C)C(=O)O)cc1)Cc1nccs1 [Example 1-(2), hydrochloride]
> 1000 µg/mL

// lookup solubility for Cc1cc(CN(Cc2nccs2)Cc2nc(-c3ccccc3)oc2C)cc(C)c1OC(C)(C)C(=O)O [Example 16-(2)]
480 µg/mL

// lookup solubility for Cc1oc(-c2cccc(Br)c2)nc1CN(Cc1ccncc1)Cc1ccc(OC(C)(C)C(=O)O)cc1 [Example 4-(2)]
< 3 µg/mL

// lookup solubility for Cc1cc(CN(Cc2ccco2)Cc2sc(-c3ccc(C(F)(F)F)cc3)nc2C)ccc1OC(C)(C)C(=O)O [SKB-compd, reference compound]
10 µg/mL

// lookup solubility for Cc1oc(-c2cccc(Br)c2)nc1CN(Cc1ccc(OC(C)(C)C(=O)O)cc1)Cc1cscn1 [Example 5-(2), hydrochloride]
680 µg/mL

----------
run_description: Determination of solubility in JP-fluid 1 / JP-fluid 2 (HPLC)
Type: physicochemical
stated_conditions: simulated gastric fluid, thermodynamic from solid; synthetic gastric juice, pH 1.2, room temperature, 12 hours or more; read-out: Solubility JP-fluid 1
Listing of recorded solubility by entry.

Please review the entries below; each comes with its answer.
{"columns": ["compound", "solubility"],
 "data": [
  ["Cc1nnc(CN(Cc2cc(C)c(OC(C)(C)C(=O)O)c(C)c2)Cc2nc(-c3ccccc3)oc2C)o1 [Example 18-(2)]", "> 710 µg/mL"],
  ["Cc1cc(CN(Cc2nccs2)Cc2nc(-c3ccccc3)oc2C)cc(C)c1OC(C)(C)C(=O)O [Example 16-(2)]", "> 490 µg/mL"]
]}

Now for the compound whose solubility we want.
// lookup solubility for Cc1cc(CN(Cc2ncco2)Cc2nc(-c3ccccc3)oc2C)cc(C)c1OC(C)(C)C(=O)O [Example 13-(2)]
> 870 µg/mL

----------
run_description: Lipid solubility: octanol / pH 7.4 phosphate buffer partition coefficient
Type: physicochemical
stated_conditions: n-octanol / pH 7.4 isotonic phosphate buffer, read-out: log D (pH 7.4)
Counter-ions that a name gives are not always drawn.
recorded_endpoint: logD
// keep it numeric: no unit symbol after the value

Please review the entries below; each comes with its answer.
{"columns": ["compound", "recorded_endpoint", "quantitative_result"],
 "data": [
  ["Cc1oc(-c2cccc(Br)c2)nc1CN(Cc1ccncc1)Cc1ccc(OC(C)(C)C(=O)O)cc1 [Example 4-(2)]", "logD", 2.5],
  ["Cc1cc(CN(Cc2ccco2)Cc2sc(-c3ccc(C(F)(F)F)cc3)nc2C)ccc1OC(C)(C)C(=O)O [SKB-compd, reference compound]", "logD", 4.4],
  ["Cc1oc(-c2cccc(Br)c2)nc1CN(Cc1ccc(OC(C)(C)C(=O)O)cc1)Cc1cscn1 [Example 5-(2), hydrochloride]", "logD", 2.3]
]}

Now for the compound whose logD we want.
// lookup logD for Cc1cc(CN(Cc2ncco2)Cc2nc(-c3ccccc3)oc2C)cc(C)c1OC(C)(C)C(=O)O [Example 13-(2)]
1.8
